Molecular target: Cytochrome P450 2C8 (Homo sapiens)
Sequence (P10632 whole entry): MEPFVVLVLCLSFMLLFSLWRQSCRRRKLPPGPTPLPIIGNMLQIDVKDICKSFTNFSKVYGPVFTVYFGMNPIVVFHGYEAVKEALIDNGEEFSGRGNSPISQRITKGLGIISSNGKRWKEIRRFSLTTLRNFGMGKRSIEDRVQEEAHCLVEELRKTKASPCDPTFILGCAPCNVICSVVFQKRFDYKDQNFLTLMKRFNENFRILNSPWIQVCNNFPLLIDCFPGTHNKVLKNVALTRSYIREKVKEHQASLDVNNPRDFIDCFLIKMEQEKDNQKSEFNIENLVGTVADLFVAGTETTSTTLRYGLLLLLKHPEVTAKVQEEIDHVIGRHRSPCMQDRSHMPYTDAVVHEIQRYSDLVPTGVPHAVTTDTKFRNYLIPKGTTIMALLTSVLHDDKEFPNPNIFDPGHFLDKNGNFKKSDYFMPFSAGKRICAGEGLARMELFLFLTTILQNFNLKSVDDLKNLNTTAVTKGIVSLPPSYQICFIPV
quantity: IC50

Tested on Cytochrome P450 2C8 (Homo sapiens), the item `COc1cc(N)c(F)cc1C(=O)CCC1CCN(CC2CCCCC2)CC1.O=C(O)/C=C/C(=O)O` showed IC50 equal to > 100 µM

----------
Target: Cytochrome P450 2B6 (Homo sapiens, UniProt P20813)
Sequence (P20813 whole entry): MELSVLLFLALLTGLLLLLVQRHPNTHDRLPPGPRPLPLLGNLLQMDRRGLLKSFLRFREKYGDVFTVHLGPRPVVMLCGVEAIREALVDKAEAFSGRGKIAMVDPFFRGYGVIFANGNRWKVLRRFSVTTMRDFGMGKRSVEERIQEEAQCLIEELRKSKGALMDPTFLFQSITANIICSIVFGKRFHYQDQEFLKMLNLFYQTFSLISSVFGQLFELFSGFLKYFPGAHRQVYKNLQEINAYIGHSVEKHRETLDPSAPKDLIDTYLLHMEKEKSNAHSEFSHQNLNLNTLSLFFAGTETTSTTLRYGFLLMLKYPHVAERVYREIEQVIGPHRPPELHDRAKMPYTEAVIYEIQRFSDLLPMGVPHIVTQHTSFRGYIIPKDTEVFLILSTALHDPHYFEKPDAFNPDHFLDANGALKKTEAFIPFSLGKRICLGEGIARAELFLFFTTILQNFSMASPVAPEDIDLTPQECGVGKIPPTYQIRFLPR
quantity: IC50 (µM)
Write the number in µM without appending the unit.

Tested on Cytochrome P450 2B6 (Homo sapiens, UniProt P20813), the item `COc1cc(N)c(F)cc1C(=O)CCC1CCN(CC2CCCCC2)CC1.O=C(O)/C=C/C(=O)O` showed IC50 equal to 95.7

----------
biological target: 5-hydroxytryptamine receptor 4 (Homo sapiens, UniProt Q13639); assay: Inhibition of human recombinant 5HT4 receptor at 1 x 10^-8M incubated for 60 mins relative to control; details: dose 1.0 10^-8M
Sequence (Q13639 whole entry): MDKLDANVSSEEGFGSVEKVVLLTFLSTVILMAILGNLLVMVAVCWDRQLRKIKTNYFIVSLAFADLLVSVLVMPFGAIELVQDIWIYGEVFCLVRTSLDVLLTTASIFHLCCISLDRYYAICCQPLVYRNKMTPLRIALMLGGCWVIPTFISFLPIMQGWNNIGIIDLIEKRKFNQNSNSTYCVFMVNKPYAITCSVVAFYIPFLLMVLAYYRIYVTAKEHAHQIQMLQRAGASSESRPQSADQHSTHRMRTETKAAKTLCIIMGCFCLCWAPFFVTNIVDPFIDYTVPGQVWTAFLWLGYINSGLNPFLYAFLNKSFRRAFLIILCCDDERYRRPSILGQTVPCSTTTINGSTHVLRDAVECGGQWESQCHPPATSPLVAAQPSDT
Classification field: 1 = inhibition at or over 60%; 0 = inhibition under 60%.

Worked examples follow.
Problem: Please check the record `COc1cc(N)c(I)cc1C(=O)CCC1CCN(CC2CCCCC2)CC1` and state if its inhibition is at or above 60%.
Result: 0

Problem: Please check the record `Nc1ccc(C(=O)CCC2CCN(CC3CCCCC3)CC2)cc1` and state if its inhibition is at or above 60%.
Result: 0

Further cases:
Problem: Please check the record `COc1cc(O)c(Cl)cc1C(=O)CCC1CCN(CC2CCCCC2)CC1` and state if its inhibition is at or above 60%.
Result: 0

Problem: Please check the record `O=C(CCC1CCN(CC2CCCCC2)CC1)c1ccc(O)cc1` and state if its inhibition is at or above 60%.
Result: 0

Problem: Please check the record `CCOc1cc(N)c(I)cc1C(=O)CCC1CCN(CC2CCCCC2)CC1` and state if its inhibition is at or above 60%.
Result: 1

Problem: Please check the record `CCOc1cc(N)ccc1C(=O)CCC1CCN(CC2CCCCC2)CC1` and state if its inhibition is at or above 60%.
Result: 0

Problem: Please check the record `COc1cc(NC(C)=O)c(Cl)cc1C(=O)CCC1CCN(CC2CCCCC2)CC1` and state if its inhibition is at or above 60%.
Result: 0

Problem: Please check the record `COc1c(C(=O)CCC2CCN(CC3CCCCC3)CC2)cc(F)c(N)c1Br` and state if its inhibition is at or above 60%.
Result: 0

Problem: Please check the record `Nc1cc(OCCF)c(C(=O)CCC2CCN(CC3CCCCC3)CC2)cc1Cl` and state if its inhibition is at or above 60%.
Result: 1

Problem: Please check the record `CC(=O)Nc1cc(O)c(C(=O)CCC2CCN(CC3CCCCC3)CC2)cc1Cl` and state if its inhibition is at or above 60%.
Result: 0
